# Test system: SF-295 CNS
# ASSAY TEXT: NCI tumour cell line growth inhibition, 48 h
MEASUREMENT NAME: TGI

q: Record lookup: for SF-295 CNS, what TGI belongs to O=S(=O)(Nc1ccc(F)cc1F)c1ccc(-c2cnc(C3CC3)o2)cc1 ?
a: 5.53 µM

q: Test system SF-295 CNS; read-out TGI; what value for CCn1sc2ccccc2c1=O ?
a: > 55.1 µM

q: Form: Entry = CC(C)CC(NC(=O)C(CI)Cc1ccccc1)C(=O)Nc1ccccc1 (stereo unspecified) | System = SF-295 CNS | TGI = ____
a: > 100 µM

q: Form field - read-out: TGI; system: SF-295 CNS; submitted item: C/C(=N/NC(=S)Nc1ccc(Cl)cc1)c1cccc(/C(C)=N\NC(=S)Nc2ccc(Cl)cc2)n1
a: 29.6 µM

q: Quick check: TGI on SF-295 CNS, item OCc1ccn2c1[C@@H](O)CC2 ?
a: > 100 µM

q: Kindly state the measured TGI obtained for COc1ccc2[nH]c3c(c2c1)CC(=S)N1CCCC(CC3=O)C1 (stereo unspecified) with SF-295 CNS.
a: > 100 µM

----------
# System: BT-549 breast
# ASSAY TEXT: NCI tumour cell line growth inhibition, 48 h
Could you please report measured TGI for the items listed next?

q: Lab note: need TGI for [N-]=[N+]=Nc1cc(=O)n2c3c(cccc13)CCC2 on BT-549 breast, anyone have it?
a: > 100 µM

q: # value lookup — system BT-549 breast, readout TGI, item O=C(Nc1nncs1)NS(=O)(=O)n1c(=S)sc2ccccc21
a: > 100 µM

q: Kindly state the measured TGI obtained for O=C(N[C@@H](c1ccccc1)[C@@H](O)C(=O)OCc1ccc([N+](=O)[O-])cc1)c1ccccc1 with BT-549 breast.
a: > 100 µM

q: Record lookup: for BT-549 breast, what TGI belongs to COc1ccc2[nH]c3c(c2c1)CC(=S)N1CCCC(CC3=O)C1 (centres undefined) ?
a: > 100 µM

q: Param readout = TGI; param system = BT-549 breast; param query = Cc1nc(-[n+]2nc(-c3ccncc3)nn2-c2ccccc2)sc1C ; response: value
a: 41 µM

q: Query the reported TGI for BT-549 breast; item: O=C(O)CC(NC(=O)CP(=O)(O)O)C(=O)O (centres undefined)
a: > 10000 µM

q: Which TGI is reported with BT-549 breast for this entry: O=S1(=O)Cc2ccc3c4c2-c2c(ccc5ccc(c-4c25)CS(=O)(=O)C3)C1 ?
a: > 100 µM

q: What reported TGI corresponds to CCN1C(=O)N(CC)C2C1NN=c1s/c(=C3\C(=O)N(CC(C)(C)C)c4ccccc43)c(=O)n12 (centres undefined) on BT-549 breast?
a: 9.65 µM

q: Param readout = TGI; param system = BT-549 breast; param query = CC(=O)O[C@H]1CCC2[C@@H]3CCC4Nc5oncc5C[C@]4(C)C3CC[C@@]21C (some centres undefined) ; response: value
a: > 10 µM

q: Recorded TGI for COc1ccc(-c2csc(Cc3nc4ccccc4c(=O)n3-c3ccc(Cl)cc3)n2)cc1 with BT-549 breast, please?
a: > 100 µM

q: What reported TGI corresponds to [N-]=[N+]=Nc1cc(=O)[nH]nc1-c1ccccc1 on BT-549 breast?
a: > 100 µM

q: // fetch BT-549 breast TGI for Ic1cccc(/C=C/CN2CCN(CCOC(c3ccccc3)c3ccccc3)CC2)c1
a: 31.4 µM

q: Requested read-out TGI, target or system BT-549 breast, entry COC1=CC2C(c3cc4ccccc4n3S(=O)(=O)c3ccccc3)CC1CN2C(=O)OCc1ccccc1 (centres undefined)
a: 75.1 µM

q: Tell me reported TGI for Cc1nn(C(=O)c2ccc(Cl)cc2)c2c1C(/C=C/c1ccccc1)SC(N)=N2 (centres undefined) , tested with BT-549 breast.
a: > 10 µM

q: Request - read-out TGI | tested on BT-549 breast | compound O=S(=O)(Nc1ccc(F)cc1F)c1ccc(-c2cnc(C3CC3)o2)cc1
a: 24 µM

q: GET /values?readout=TGI&system=BT-549 breast&item= C=C1C(=O)OC2CC(C)C3(O)CCC(=O)C3(C)CC12 (centres undefined)
a: > 100 µM

q: Test system BT-549 breast; read-out TGI; what value for COc1c(OC(C)=O)c(OC(C)=O)cc2c1-c1ccc(SC)c(=O)cc1C(NC(C)=O)CC2 (centres undefined) ?
a: > 100 µM

q: Record CC(C)CC(NC(=O)C(CI)Cc1ccccc1)C(=O)Nc1ccccc1 (centres undefined) : what is its TGI with BT-549 breast?
a: 57 µM

q: # value lookup — system BT-549 breast, readout TGI, item O=C(c1cccs1)N(C(=O)N1CCN(c2ccccc2)CC1)S(=O)(=O)c1ccccc1
a: 84 µM

q: Short answer please: TGI, BT-549 breast, entry CCCCSC1=N/C(=C\c2ccco2)C(Cl)=N1
a: > 100 µM

q: Form field - read-out: TGI; system: BT-549 breast; submitted item: COc1ccc(-c2coc3c4c(ccc3c2=O)OCO4)cc1OC
a: > 100 µM

q: Query for BT-549 breast: what TGI does the record show for CC(=O)Oc1ccc2c(c1)c1c(=O)oc(C)nc1n2Cc1ccccc1 ?
a: > 66.3 µM

q: Give recorded TGI with BT-549 breast for the following compound: COc1cc(OC)c(/C=C/c2c3ccccc3cc[n+]2C)c(OC)c1
a: 21.8 µM

q: Query for BT-549 breast: what TGI does the record show for CCOc1ccncc1[N+](=O)[O-] ?
a: > 100 µM

q: Write down the reported TGI of COc1ccc(C2OC(N)=C(C#N)C3=C2CCCC3C)cc1OC (centres undefined) , test system: BT-549 breast.
a: > 100 µM

q: Observed TGI on BT-549 breast for CN(CCO)c1ccc(N2Cc3ccccc3OC3=C2C(=O)c2c(O)ccc(O)c2C3=O)cn1 , please.
a: 0.386 µM

q: Form: Entry = O=C1NC(=O)/C(=C\c2ccccc2)C2=C1CCCC2 | System = BT-549 breast | TGI = ____
a: 16.4 µM

q: Param readout= TGI; system= BT-549 breast; entry= O=C1c2cccc3cccc(c23)C(=O)N1CCCNCCCNCCCCNCCCNCCCN1C(=O)c2cccc3cccc(c23)C1=O ; returns value.
a: 15.1 µM

q: Enter reported TGI observed with BT-549 breast for Cc1cc(C)c(/C=C2\C(=O)Nc3ccc(NC(=O)CCCCCCC(=O)NO)cc32)[nH]1
a: > 100 µM

q: Please provide the recorded TGI for S=C1SSC2N=CC=CC12 (centres undefined) , tested on BT-549 breast.
a: > 100 µM

q: // map CC(O)CCCCC(O)CCC[C@H](O)[C@H]1CCC([C@H]2CCC([C@@H](O)CCCCCCCCCCCCC3=C[C@H](C)OC3=O)O2)O1 (some centres undefined) to recorded TGI (system: BT-549 breast)
a: 21.3 µM

q: # value lookup — system BT-549 breast, readout TGI, item CN1C(=O)/C(=C/c2c(Cl)n(C)c3ccccc23)c2ccccc21
a: 9.25 µM

q: Look up TGI with BT-549 breast for this compound: CC1=C(C(=O)Nc2ccc(Cl)c(Cl)c2)C(c2cccc(Oc3ccccc3)c2)NC(=O)N1 (centres undefined)
a: 14.3 µM

q: Form field - read-out: TGI; system: BT-549 breast; submitted item: C=CC1C(OC2OC(CO)C(O)C(O)C2O)OC=C(C(=O)OC)C1CC1CC(=O)CC(CCc2ccc(O)cc2)O1 (centres undefined)
a: > 100 µM

q: Hi! What's the reported TGI for O=C(CCc1cc(O)ccc1O)OCCc1ccccc1 on BT-549 breast?
a: 26.6 µM

q: Requested read-out TGI, target or system BT-549 breast, entry O=C(/N=C/c1c(O)c2ccccc2oc1=O)Oc1ccccc1
a: 81 µM

q: Lab note: need TGI for CCOC(=O)c1nc2ccc(C(F)(F)F)cc2[nH]c1=O on BT-549 breast, anyone have it?
a: > 100 µM

q: Missing value: TGI, BT-549 breast, entry CC(=O)N(CCc1ccccc1)C(C#N)c1ccccc1 (centres undefined) . Fill in?
a: > 100 µM

q: Reported TGI for BT-549 breast, given OCc1ccn2c1[C@@H](O)CC2 ?
a: > 100 µM

Source of measurements: PubChem BioAssay (NCI)
